System: normal primary NK cells, pool 2 (3 donors) (IL-2 2.5 ng/mL)
Test: percent inhibition of viability; higher = more inhibition;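 also: normalised to DMSO-only wells as negative and benzethonium chloride as positive control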
Conditions: 72 h; 10 nM
I'd appreciate it if you could supply percent inhibition of viability values for the items below.
Give bare numbers, in %.

A selection of reference data follows.
CC(=O)Nc1ccc(C(=O)Nc2ccccc2N)cc1 [Tacedinaline] (max concentration tested 1000 nM); 9.29
COc1ccc(-c2cc3c(C)nc(N)nc3n([C@H]3CC[C@H](OCCO)CC3)c2=O)cn1 (max concentration tested 10000 nM); 7.93

Quick one: give me percent inhibition of viability for each item below, same order please.
1. Cn1nnc2c(C(N)=O)ncn2c1=O [Temozolomide] (max concentration tested 100000 nM)
2. O=c1ncn2nc(Sc3ccc(F)cc3F)ccc2c1-c1c(Cl)cccc1Cl [VX 745] (max concentration tested 10000 nM)

[-14.2, -3.08]

----------
I'd appreciate it if you could supply percent inhibition of viability values for the items below.
Tested on: NK-92 (IL-2 2.5 ng/mL)
Test: percent inhibition of viability; higher = more inhibition
Conditions: 72 h; 1 nM
Give bare numbers, in %.

CNC(=O)c1cc(Oc2ccc(NC(=O)Nc3ccc(Cl)c(C(F)(F)F)c3)cc2)ccn1 [Sorafenib] (max concentration tested 1000 nM); -1.4
C/C(=C\c1csc(C)n1)[C@@H]1C[C@@H]2O[C@]2(C)CCC[C@H](C)[C@H](O)[C@@H](C)C(=O)C(C)(C)[C@@H](O)CC(=O)O1 [Patupilone] (max concentration tested 1000 nM); -3.29
CO[C@@]12[C@H](COC(N)=O)C3=C(C(=O)C(C)=C(N)C3=O)N1C[C@@H]1N[C@@H]12 [Mitomycin C] (max concentration tested 10000 nM); -6.49
Cn1cncc1[C@@](N)(c1ccc(Cl)cc1)c1ccc2c(c1)c(-c1cccc(Cl)c1)cc(=O)n2C [Tipifarnib] (max concentration tested 10000 nM); -0.73

Next item in the queue.
Form entry - test system: NK-92 (IL-2 2.5 ng/mL); read-out: percent inhibition of viability; compound: S=C(NCc1ccc2c(c1)OCO2)N1CCN(c2ncnc3c2oc2ccccc23)CC1 [Amuvatinib] (max concentration tested 10000 nM)
-8.12

----------
I'd appreciate it if you could supply percent inhibition of viability values for the items below.
Tested on: IMC-1 (IL-2 20 ng/mL)
Assay: percent inhibition of viability; higher = more inhibition
Conditions: 72 h; 0.1 nM
Numbers only, in %.

A selection of reference data follows.
O=C(NOC[C@H](O)CO)c1ccc(F)c(F)c1Nc1ccc(I)cc1F (max concentration tested 1000 nM); -4.97
CC(=O)Nc1ccc(C(=O)Nc2ccccc2N)cc1 [Tacedinaline] (max concentration tested 1000 nM); -3.66

Quick one: give me percent inhibition of viability for each item below, same order please.
1. Cn1cc(CNCC2CCN(c3ncc(C(=O)NO)cn3)CC2)c2ccccc21 [Quisinostat] (max concentration tested 1000 nM)
2. COc1cc2ncnc(Nc3ccc(F)c(Cl)c3)c2cc1NC(=O)/C=C/CN1CCCCC1 [Dacomitinib] (max concentration tested 1000 nM)
3. Cc1ccc(C(=O)N(CCCN)[C@@H](c2oc3cc(Cl)ccc3c(=O)c2Cc2ccccc2)C(C)C)cc1 (max concentration tested 100 nM)
4. CNC(=O)c1cc(Oc2ccc(NC(=O)Nc3ccc(Cl)c(C(F)(F)F)c3)cc2)ccn1 [Sorafenib] (max concentration tested 1000 nM)
5. COc1cc2nccc(Oc3ccc(NC(=O)C4(C(=O)Nc5ccc(F)cc5)CC4)cc3)c2cc1OC [Cabozantinib] (max concentration tested 1000 nM)

1: -4.98; 2: 9.55; 3: -1.73; 4: -6.25; 5: -7.19
